// reported MIC grade, A. TERREUS 49, YAG media for each item listed
# Tested on: A. terreus 49
# experimental-details: Minimum inhibitory concentration, YAG medium
# Format: cell-based, Aspergillus terreus
# test-context: banded MIC grade
parameter-measured: MIC grade, A. TERREUS 49, YAG media

[
  {
    "entry-smiles": "NC1=NN=C(CCCCOCc2ccc(F)cc2F)CS1",
    "parameter-measured": "MIC grade, A. TERREUS 49, YAG media",
    "assay-result": "4 (4: <0.2 mg/L)"
  },
  {
    "entry-smiles": "COCCCCC1=NN=C(N)SC1",
    "parameter-measured": "MIC grade, A. TERREUS 49, YAG media",
    "assay-result": "3 (3: 0.2-1 mg/L)"
  },
  {
    "entry-smiles": "COCCCCCCC1=NN=C(N)SC1",
    "parameter-measured": "MIC grade, A. TERREUS 49, YAG media",
    "assay-result": "4 (4: <0.2 mg/L)"
  },
  {
    "entry-smiles": "NC1=NN=C(CCOc2ccc(Br)cc2)CS1",
    "parameter-measured": "MIC grade, A. TERREUS 49, YAG media",
    "assay-result": "1 (1: ≥5 mg/L)"
  },
  {
    "entry-smiles": "COCCCC1=NN=C(N)SC1",
    "parameter-measured": "MIC grade, A. TERREUS 49, YAG media",
    "assay-result": "4 (4: <0.2 mg/L)"
  },
  {
    "entry-smiles": "NC1=NN=C(CCCCCOc2ccccn2)CS1",
    "parameter-measured": "MIC grade, A. TERREUS 49, YAG media",
    "assay-result": "4 (4: <0.2 mg/L)"
  },
  {
    "entry-smiles": "Cc1cc(COCCCCC2=NN=C(N)SC2)ccc1F",
    "parameter-measured": "MIC grade, A. TERREUS 49, YAG media",
    "assay-result": "4 (4: <0.2 mg/L)"
  },
  {
    "entry-smiles": "Cc1cccc(COCCCCC2=NN=C(N)SC2)c1",
    "parameter-measured": "MIC grade, A. TERREUS 49, YAG media",
    "assay-result": "3 (3: 0.2-1 mg/L)"
  },
  {
    "entry-smiles": "CCCOc1ccc(CCC2=NN=C(N)SC2)cc1",
    "parameter-measured": "MIC grade, A. TERREUS 49, YAG media",
    "assay-result": "4 (4: <0.2 mg/L)"
  },
  {
    "entry-smiles": "NC1=NN=C(CCCCOCc2cccc(-c3ccccc3)c2)CS1",
    "parameter-measured": "MIC grade, A. TERREUS 49, YAG media",
    "assay-result": "2 (2: 1-5 mg/L)"
  },
  {
    "entry-smiles": "CCc1ccc(OCCCCC2=NN=C(N)SC2)cc1",
    "parameter-measured": "MIC grade, A. TERREUS 49, YAG media",
    "assay-result": "4 (4: <0.2 mg/L)"
  },
  {
    "entry-smiles": "NC1=NN=C(CCCCCc2ccccn2)CS1",
    "parameter-measured": "MIC grade, A. TERREUS 49, YAG media",
    "assay-result": "4 (4: <0.2 mg/L)"
  },
  {
    "entry-smiles": "NC1=NN=C(CCCCOCc2cccc(Br)c2)CS1",
    "parameter-measured": "MIC grade, A. TERREUS 49, YAG media",
    "assay-result": "4 (4: <0.2 mg/L)"
  },
  {
    "entry-smiles": "COc1ccc(COCCC2=NN=C(N)SC2)cc1",
    "parameter-measured": "MIC grade, A. TERREUS 49, YAG media",
    "assay-result": "3 (3: 0.2-1 mg/L)"
  }
]

---

# Tested on: C. albicans
# experimental-details: Minimum inhibitory concentration, RPMI medium
# Assay type: cell-based
# test-context: banded MIC grade
// reported MIC grade, C. ALBICANS, RPMI media for each item listed

[
  {
    "entry-smiles": "NC1=NN=C(CCCCCCOc2ccccc2)CS1",
    "MIC grade, C. ALBICANS, RPMI media": "3 (3: 1-5 mg/L)"
  },
  {
    "entry-smiles": "NC1=NN=C(CCCCCOCc2ccccc2)CS1",
    "MIC grade, C. ALBICANS, RPMI media": "3 (3: 1-5 mg/L)"
  },
  {
    "entry-smiles": "COCCCCCC1=CSC(=N)NN1C",
    "MIC grade, C. ALBICANS, RPMI media": "4 (4: <1 mg/L)"
  },
  {
    "entry-smiles": "Cc1cc(C)cc(C2=NN=C(N)SC2)c1",
    "MIC grade, C. ALBICANS, RPMI media": "1 (1: ≥20 mg/L)"
  },
  {
    "entry-smiles": "NC1=NN=C(CCCCOCc2cc(F)ccc2F)CS1",
    "MIC grade, C. ALBICANS, RPMI media": "3 (3: 1-5 mg/L)"
  },
  {
    "entry-smiles": "COCCCC1=NN=C(N)SC1",
    "MIC grade, C. ALBICANS, RPMI media": "3 (3: 1-5 mg/L)"
  },
  {
    "entry-smiles": "NC1=NN=C(c2ccc(C3CCCCC3)cc2)CS1",
    "MIC grade, C. ALBICANS, RPMI media": "1 (1: ≥20 mg/L)"
  },
  {
    "entry-smiles": "N#Cc1ccc(C2=NN=C(N)SC2)cc1",
    "MIC grade, C. ALBICANS, RPMI media": "1 (1: ≥20 mg/L)"
  },
  {
    "entry-smiles": "NC1=NN=C(CCCCCOc2ccc(F)cc2)CS1",
    "MIC grade, C. ALBICANS, RPMI media": "4 (4: <1 mg/L)"
  },
  {
    "entry-smiles": "CCCCc1cccc(COCCCCC2=NN=C(N)SC2)c1",
    "MIC grade, C. ALBICANS, RPMI media": "2 (2: 5-20 mg/L)"
  },
  {
    "entry-smiles": "NC1=NN=C(c2ccc3ccccc3c2)CS1",
    "MIC grade, C. ALBICANS, RPMI media": "1 (1: ≥20 mg/L)"
  },
  {
    "entry-smiles": "NC1=NN=C(CCCCCCCOc2ccccc2)CS1",
    "MIC grade, C. ALBICANS, RPMI media": "3 (3: 1-5 mg/L)"
  },
  {
    "entry-smiles": "NC1=NN=C(c2ccc(Cl)cc2)CS1",
    "MIC grade, C. ALBICANS, RPMI media": "1 (1: ≥20 mg/L)"
  },
  {
    "entry-smiles": "NC1=NN=C(CCCCC(=O)Nc2ccccc2)CS1",
    "MIC grade, C. ALBICANS, RPMI media": "1 (1: ≥20 mg/L)"
  },
  {
    "entry-smiles": "NC1=NN=C(CCCCCN2C(=O)c3ccccc3C2=O)CS1",
    "MIC grade, C. ALBICANS, RPMI media": "1 (1: ≥20 mg/L)"
  },
  {
    "entry-smiles": "Cc1cc(COCCCCC2=NN=C(N)SC2)ccc1F",
    "MIC grade, C. ALBICANS, RPMI media": "4 (4: <1 mg/L)"
  },
  {
    "entry-smiles": "NC1=NN=C(CCCCOc2ccccc2)CS1",
    "MIC grade, C. ALBICANS, RPMI media": "4 (4: <1 mg/L)"
  },
  {
    "entry-smiles": "NC1=NN=C(CCOCCOc2ccccc2)CS1",
    "MIC grade, C. ALBICANS, RPMI media": "3 (3: 1-5 mg/L)"
  },
  {
    "entry-smiles": "NC1=NN=C(c2ccccn2)CS1",
    "MIC grade, C. ALBICANS, RPMI media": "1 (1: ≥20 mg/L)"
  },
  {
    "entry-smiles": "CCOC(=O)CCCCCC1=NN=C(N)SC1",
    "MIC grade, C. ALBICANS, RPMI media": "4 (4: <1 mg/L)"
  },
  {
    "entry-smiles": "NC1=NN=C(CCOc2ccc(Br)cc2)CS1",
    "MIC grade, C. ALBICANS, RPMI media": "1 (1: ≥20 mg/L)"
  },
  {
    "entry-smiles": "NC1=NN=C(CCCCOCc2ccccc2C2CC2)CS1",
    "MIC grade, C. ALBICANS, RPMI media": "3 (3: 1-5 mg/L)"
  },
  {
    "entry-smiles": "CCCCOc1cccc(C2=NN=C(N)SC2)c1",
    "MIC grade, C. ALBICANS, RPMI media": "1 (1: ≥20 mg/L)"
  },
  {
    "entry-smiles": "CCCCc1ccc(COCCC2=NN=C(N)SC2)cc1",
    "MIC grade, C. ALBICANS, RPMI media": "2 (2: 5-20 mg/L)"
  },
  {
    "entry-smiles": "CCCCOCCC1=CNN=C(N)S1",
    "MIC grade, C. ALBICANS, RPMI media": "1 (1: ≥20 mg/L)"
  },
  {
    "entry-smiles": "NC1=NN=C(CCCCOCc2cccc(C(F)(F)F)c2)CS1",
    "MIC grade, C. ALBICANS, RPMI media": "3 (3: 1-5 mg/L)"
  },
  {
    "entry-smiles": "NC1=NN=C(CCOCc2ccccc2)CS1",
    "MIC grade, C. ALBICANS, RPMI media": "1 (1: ≥20 mg/L)"
  },
  {
    "entry-smiles": "Cc1ccc(COCCC2=NN=C(N)SC2)cc1",
    "MIC grade, C. ALBICANS, RPMI media": "3 (3: 1-5 mg/L)"
  },
  {
    "entry-smiles": "CCc1ccc(OCCCCC2=NN=C(N)SC2)cc1",
    "MIC grade, C. ALBICANS, RPMI media": "4 (4: <1 mg/L)"
  }
]
